Here the recorded binding signal is given for each entry.
- study target: GST-Ap-NF-kB RHD (Exaiptasia pallida (Aiptasia), UniProt A0A913YAJ5 2-422)
- Sequence: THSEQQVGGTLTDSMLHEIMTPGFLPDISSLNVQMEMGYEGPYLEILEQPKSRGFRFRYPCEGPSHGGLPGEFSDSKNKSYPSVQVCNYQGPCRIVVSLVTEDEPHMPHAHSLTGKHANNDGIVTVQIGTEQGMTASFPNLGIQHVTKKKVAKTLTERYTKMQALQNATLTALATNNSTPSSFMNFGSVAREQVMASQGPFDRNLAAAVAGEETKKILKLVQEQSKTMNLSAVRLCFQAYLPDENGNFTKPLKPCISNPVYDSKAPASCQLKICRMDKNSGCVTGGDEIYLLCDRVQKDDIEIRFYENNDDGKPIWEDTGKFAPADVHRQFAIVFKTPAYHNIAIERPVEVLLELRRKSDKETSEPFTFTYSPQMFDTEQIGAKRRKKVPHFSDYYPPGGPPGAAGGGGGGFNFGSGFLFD
- measurement notes: protein-binding microarray (PBM); PBM: ~300 nM protein, 6 mM HEPES pH 7.8, 80 mM KCl, 0.5 mM EDTA, 0.5 mM EGTA, 6% glycerol, 35 ng/ul poly-dIdC, 1% milk, 1 h, room temperature; high values mean tight binding
- measurement context: dsDNA, one strand shown
Report the value in z-score with no unit label.

CCGATTAACATCACCCAATTCCCTGATGTTAATCGGGTCTTGATTCGCTTGACGCTGCTG; 3.33
CCGATTAACATCAAACAATTCCCTGATGTTAATCGGGTCTTGATTCGCTTGACGCTGCTG; 3.25
CCGATTAACATCAGAACATCCCCTGATGTTAATCGGGTCTTGATTCGCTTGACGCTGCTG; 6.05
CCGATTAACATCAGGGGGGGGTATGATGTTAATCGGGTCTTGATTCGCTTGACGCTGCTG; 5.02
CCGATTAACATCAAAATTTCCCATGATGTTAATCGGGTCTTGATTCGCTTGACGCTGCTG; 3.99
CCGATTAACATCACCCCGAACGCTGATGTTAATCGGGTCTTGATTCGCTTGACGCTGCTG; 1.59
CCGATTAACATCAGGGGATTACATGATGTTAATCGGGTCTTGATTCGCTTGACGCTGCTG; 6.52
CCGATTAACATCAAGGGGAATACTGATGTTAATCGGGTCTTGATTCGCTTGACGCTGCTG; 8.04
CCGATTAACATCAGGGAAAAACCTGATGTTAATCGGGTCTTGATTCGCTTGACGCTGCTG; 5.74
CCGATTAACATCAAACACCCCCCTGATGTTAATCGGGTCTTGATTCGCTTGACGCTGCTG; 4.89

Query: Observed binding signal on GST-Ap-NF-kB RHD (Exaiptasia pallida (Aiptasia), UniProt A0A913YAJ5 2-422) for "CCGATTAACATCAGGACCGTCCCTGATGTTAATCGGGTCTTGATTCGCTTGACGCTGCTG" , please.
Result: 4.25

Query: Find binding signal (GST-Ap-NF-kB RHD (Exaiptasia pallida (Aiptasia), UniProt A0A913YAJ5 2-422)) for the entry "CCGATTAACATCACGCAATTCCCTGATGTTAATCGGGTCTTGATTCGCTTGACGCTGCTG"
Result: 2.72

Query: Return binding signal measured with GST-Ap-NF-kB RHD (Exaiptasia pallida (Aiptasia), UniProt A0A913YAJ5 2-422) given this sequence: "CCGATTAACATCACCCGGCGCAGTGATGTTAATCGGGTCTTGATTCGCTTGACGCTGCTG"
Result: 1.17

Query: Provide the documented binding signal with GST-Ap-NF-kB RHD (Exaiptasia pallida (Aiptasia), UniProt A0A913YAJ5 2-422) as the system for "CCGATTAACATCAGGGAATTAGATGATGTTAATCGGGTCTTGATTCGCTTGACGCTGCTG"
Result: 1.83

Query: Item: "CCGATTAACATCAGGAACTCCCATGATGTTAATCGGGTCTTGATTCGCTTGACGCTGCTG" Test system: GST-Ap-NF-kB RHD (Exaiptasia pallida (Aiptasia), UniProt A0A913YAJ5 2-422) Read-out: binding signal Value: ?
Result: 2.86

Query: What value of binding signal on GST-Ap-NF-kB RHD (Exaiptasia pallida (Aiptasia), UniProt A0A913YAJ5 2-422) does "CCGATTAACATCAGGGGATGTGCTGATGTTAATCGGGTCTTGATTCGCTTGACGCTGCTG" have?
Result: 3.15

Query: // map "CCGATTAACATCAGAGAAGCCCCTGATGTTAATCGGGTCTTGATTCGCTTGACGCTGCTG" to recorded binding signal (system: GST-Ap-NF-kB RHD (Exaiptasia pallida (Aiptasia), UniProt A0A913YAJ5 2-422))
Result: 4.39

Query: What measured binding signal is associated with "CCGATTAACATCACGCAAATCCCTGATGTTAATCGGGTCTTGATTCGCTTGACGCTGCTG" on GST-Ap-NF-kB RHD (Exaiptasia pallida (Aiptasia), UniProt A0A913YAJ5 2-422)?
Result: 2.1

Query: Return binding signal measured with GST-Ap-NF-kB RHD (Exaiptasia pallida (Aiptasia), UniProt A0A913YAJ5 2-422) given this sequence: "CCGATTAACATCAGGGGACTCACTGATGTTAATCGGGTCTTGATTCGCTTGACGCTGCTG"
Result: 5.12

Query: So what binding signal did "CCGATTAACATCACAAATTACCCTGATGTTAATCGGGTCTTGATTCGCTTGACGCTGCTG" get with GST-Ap-NF-kB RHD (Exaiptasia pallida (Aiptasia), UniProt A0A913YAJ5 2-422)?
Result: 3.66

Query: Missing value: binding signal, GST-Ap-NF-kB RHD (Exaiptasia pallida (Aiptasia), UniProt A0A913YAJ5 2-422), entry "CCGATTAACATCAATACTTCCCCTGATGTTAATCGGGTCTTGATTCGCTTGACGCTGCTG" . Fill in?
Result: 5.61

Query: # value lookup — system GST-Ap-NF-kB RHD (Exaiptasia pallida (Aiptasia), UniProt A0A913YAJ5 2-422), readout binding signal, item "CCGATTAACATCAAGTTCCCCCATGATGTTAATCGGGTCTTGATTCGCTTGACGCTGCTG"
Result: 7.14

Query: What measured binding signal is associated with "CCGATTAACATCAGCATTTTCCCTGATGTTAATCGGGTCTTGATTCGCTTGACGCTGCTG" on GST-Ap-NF-kB RHD (Exaiptasia pallida (Aiptasia), UniProt A0A913YAJ5 2-422)?
Result: 3.21

Query: Recorded binding signal for "CCGATTAACATCACGGGAAACTCTGATGTTAATCGGGTCTTGATTCGCTTGACGCTGCTG" with GST-Ap-NF-kB RHD (Exaiptasia pallida (Aiptasia), UniProt A0A913YAJ5 2-422), please?
Result: 3.67

Query: Recorded binding signal for "CCGATTAACATCAAGAACCCCCGTGATGTTAATCGGGTCTTGATTCGCTTGACGCTGCTG" with GST-Ap-NF-kB RHD (Exaiptasia pallida (Aiptasia), UniProt A0A913YAJ5 2-422), please?
Result: 6.68

Query: Which measured binding signal belongs to "CCGATTAACATCAAAAGTCCCCCTGATGTTAATCGGGTCTTGATTCGCTTGACGCTGCTG" , tested on GST-Ap-NF-kB RHD (Exaiptasia pallida (Aiptasia), UniProt A0A913YAJ5 2-422)?
Result: 8.58

* * *

// reported binding signal for each item listed
- study target: GST-Nv-NF-kB (Cys allele) (Nematostella vectensis, UniProt E5G601 2-411)
- Sequence: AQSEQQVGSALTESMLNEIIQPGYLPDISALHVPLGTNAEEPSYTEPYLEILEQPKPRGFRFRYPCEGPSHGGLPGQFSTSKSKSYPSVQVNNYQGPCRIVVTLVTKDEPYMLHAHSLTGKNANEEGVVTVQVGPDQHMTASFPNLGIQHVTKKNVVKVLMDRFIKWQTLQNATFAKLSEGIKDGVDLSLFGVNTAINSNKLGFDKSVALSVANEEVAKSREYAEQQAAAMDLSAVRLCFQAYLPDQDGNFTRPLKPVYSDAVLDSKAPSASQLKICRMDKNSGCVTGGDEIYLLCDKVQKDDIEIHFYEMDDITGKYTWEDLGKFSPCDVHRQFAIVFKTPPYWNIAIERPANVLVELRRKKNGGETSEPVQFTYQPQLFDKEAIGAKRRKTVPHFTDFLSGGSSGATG
- measurement notes: protein-binding microarray (PBM); PBM: ~300 nM protein, 6 mM HEPES pH 7.8, 80 mM KCl, 0.5 mM EDTA, 0.5 mM EGTA, 6% glycerol, 35 ng/ul poly-dIdC, 1% milk, 1 h, room temperature; Ap Aiptasia and Nv Nematostella (sea anemones) / Co Capsaspora / Aq Amphimedon (sponge) / Dm Drosophila / Hu human; RHD is the Rel homology domain; high values mean tight binding
- measurement context: dsDNA, one strand shown
Express the result in z-score but write the number alone.

The examples below pair each entry with its known result.
CCGATTAACATCAGGGGAACCTATGATGTTAATCGGGTCTTGATTCGCTTGACGCTGCTG; 6.27
CCGATTAACATCAAGGGGTTTTCTGATGTTAATCGGGTCTTGATTCGCTTGACGCTGCTG; 7.5

Query: What does the record list as binding signal for "CCGATTAACATCAGGGGATTCTATGATGTTAATCGGGTCTTGATTCGCTTGACGCTGCTG" ?
Result: 9.25

Query: Which measured binding signal value corresponds to "CCGATTAACATCAGGGGGATACATGATGTTAATCGGGTCTTGATTCGCTTGACGCTGCTG" ?
Result: 4.96

Query: What value of binding signal has been recorded for this entry: "CCGATTAACATCAGGGGAACACATGATGTTAATCGGGTCTTGATTCGCTTGACGCTGCTG"
Result: 5.02
